B1: FCHSD1 (parent)
chain: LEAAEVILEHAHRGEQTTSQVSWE

variants of: B1; assay: protein stability index of a GFP-peptide fusion (GPS, HEK-293T) (PSI 1-6); higher = more stable; conditions: c terminus: a fixed tail appended;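 further: lentivirally expressed fusions sorted by FACS into six bins by GFP to DsRed ratio, PSI derived from sequencing read proportions per bin multiplied by bin number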
Binary classification by protein stability index, with 4 as an inclusive lower bound for 1 (yes); all other cases are 0 (no).

These recorded examples may help you get a feel for the data.
Mutation Code	Classification
T17G	1 (yes)
E24P	1 (yes)
I7A	1 (yes)
A3E	1 (yes)
A11Y	0 (no)

Evaluate E15R : protein stability index at minimum 4?
0 (no)

Evaluate A4K : protein stability index at minimum 4?
1 (yes)

Evaluate W23M : protein stability index at minimum 4?
1 (yes)

Evaluate S19K : protein stability index at minimum 4?
1 (yes)

Evaluate E2C : protein stability index at minimum 4?
0 (no)

Evaluate T18V : protein stability index at minimum 4?
0 (no)

Evaluate I7V : protein stability index at minimum 4?
1 (yes)
